system: RPMI-8226 leukemia; assay: NCI-60 one-dose screen, 48 h; details: 10 µM unless noted
This is part of a sample that, as a whole, favours compounds with a hit. Of some 83,000 tested, about 20% had one in any assay. The source made the active and inactive calls. Rule for the calls: active = growth percent below 10; inactive = the rest.
Classes used: Yes (active), No (inactive)

COc1ccc(Nc2nc(N)nc3c2CCc2occc2-3)cc1 | No
O=C1CCC(NC(=S)Nc2ccccc2)N1 (stereo not given) | No
CCn1cc(C2NC(=O)c3ccccc3N2)c2cccc(C)c21 (stereo not given) | Yes
Cc1nn(-c2ccccc2)c(N2CCOCC2)c1/C=N/N=c1\sc2ccccc2n1C | No
COc1ccc(C(=O)c2cc(C)c(OC)c(C)c2)c(OC)c1O | No
CC(=O)OCC(=O)[C@@]1(O)CC[C@H]2[C@@H]3CC(=C(Br)Br)C4=CC(=O)CC[C@]4(C)[C@H]3C(=O)C[C@@]21C | No
CC(C)(C)CC(C)(C)Nc1c(-c2ccc(C(F)(F)F)cc2)nc2cnccn12 | No
CN1C(=O)N(C)[C@H]2NC(NN)=N[C@H]21 | No
CC1=CC[C@@H]2CC[C@]3(C)[C@H](CC[C@@H]4[C@@]5(C)CCCNC(C)(C)[C@@H]5CC[C@]43C)[C@H]2[C@@H]1C | Yes
COc1cccc(-c2nc3occn3c2-c2ccnc(NCCCNS(=O)(=O)c3cccc(F)c3)n2)c1 | No
CC(C)(C)CC(C)(C)Nc1c(-c2ccc3c(c2)OCO3)nc2cnccn12 | No
C#Cc1cccc(NC(=O)Nc2cccc(N=C=S)c2)c1 | No
N#Cc1cc(-c2nc3ccccc3s2)c(=O)n(NS(=O)(=O)c2ccc(Cl)cc2)c1N | No
Cn1c(=O)c2[nH]c(CCCc3nc4c([nH]3)c(=O)n(C)c(=O)n4C)nc2n(C)c1=O | No
C#CCNC(=O)[C@H](Cc1ccccc1)NC(=O)[C@]12CC[C@@H](C(=C)C)[C@@H]1[C@H]1CC[C@@H]3[C@@]4(C)Cc5c([nH]c6ccccc56)C(C)(C)[C@@H]4CC[C@@]3(C)[C@]1(C)CC2 | No
COc1ccccc1/C=N/NC1=NC2C(N1)N(C)C(=O)N2C (stereo not given) | No
CN(C)c1ccc(-c2c(C#N)c(N)n3nc(N)c(C#N)c3c2C#N)cc1 | No
CNC(=O)Nc1ccc(-c2nc(N3CCOCC3)nc3c2cnn3C2CCOCC2)cc1 | Yes
NS(=O)(=O)c1cccc(NC(=O)C(=O)C2C(=O)Nc3ccccc32)c1 (stereo not given) | No
COc1cc(C2CC(c3cccc(Nc4ccncc4)c3)=NN2C(C)=O)cc(OC)c1OC (stereo not given) | No
O=C(NCCc1ccccn1)OCc1nc2nc(Cl)nc(N3CCOCC3)c2[nH]1 | Yes
COc1cc(C(=O)c2cnc(-c3ccc4cc[nH]c4c3)[nH]2)cc(OC)c1OC | Yes
CC(=O)OCCCCCNc1ccccc1 | No
O=C1C(=O)c2c(nc3ncccn23)-c2ccccc21 | Yes
CN1CCN(Cc2ccc(NC(=O)c3cncc(C#Cc4cnccc4C(F)(F)F)c3)cc2C(F)(F)F)CC1 | No
C#CC(=O)Nc1cccc2c1cc(C)n2-c1nc2c(c(NCc3ccccc3)n1)CCCC2 | Yes
Clc1nc(Cl)c2ncn(CCOCCn3cnc4c(Cl)nc(Cl)nc43)c2n1 | Yes
O=C(O)c1cn(C2CC2)c2cc(N3CCN(C(=O)C[n+]4cccc5ccccc54)CC3)c(F)cc2c1=O | No
C1=C2CNCC3=Cc4ccc5ccccc5c4OC23Oc2c1ccc1ccccc21 | No
CC(C)Cc1ccc(C(C)C(=O)NCc2ccc(Cn3c(=O)sn(-c4ccc(Cl)cc4)c3=O)cc2)cc1 (stereo not given) | No
COc1cc2c(cc1[N+](=O)[O-])-c1ccc([N+](=O)[O-])cc1/C2=N\O | No
CCOc1cc(CNc2ccc(N3CCOCC3)c(C(=O)O)c2)ccc1OC | No
COc1ccc2c(c1)OC13Oc4cc(OC)ccc4C=C1CCCC3=C2 | Yes
CCNC(=S)NNC(=O)c1cc2ccc1CCc1ccc(cc1)CC2 | No
Cn1ncc2c(Nc3ccccc3Cl)nc(Cl)nc21 | No
O=C(Nc1ccc2cc3ccc(NC(=O)NC4CCCCC4)cc3nc2c1)NC1CCCCC1 | No
O=C(c1ccccc1)N1N=C(c2ccc(-n3ccc(C(F)(F)F)n3)cc2)CC1c1ccc[nH]1 (stereo not given) | No
C#CCn1cc(C=C2C(=O)NC(=S)NC2=O)c2cc(Cl)ccc21 | Yes
NC(=O)CN1CCN(c2ccccc2Cl)CC1 | No
CN1C(=O)N(C)C2NC(N/N=C/c3ccccc3)=NC21 (stereo not given) | No

The measurements presented in this section are drawn from PubChem BioAssay (NCI).
